Test system: RPMI-8226 leukemia
method_summary: NCI tumour cell line growth inhibition, 48 h
measure: TGI

> print(dat)
                                   compound  measure  reported.value
1  N#Cc1c(N)nc(NCc2ccccc2)c(C#N)c1-c1ccc(Cl)cc1      TGI         97.1 µM
2  CCCCCCCCCCCc1noc2c1C(=O)C(O)CC2 (stereo unspecified)      TGI         67.7 µM
3  CC(=O)NC(Cc1cnc[nH]1)C(=O)N1CCCC1C(N)=O (stereo unspecified)      TGI        > 100 µM
4  Cc1c(Cl)ccc2c1NC(=O)C2(O)CC(=O)c1ccc2ccccc2c1 (stereo unspecified)      TGI         46.7 µM
5  Cc1ccccc1C1=C/C(=C(\SS/C(C(=O)c2ccc(OCC(=O)O)c(Cl)c2Cl)=C2\C=C(c3ccccc3C)SS2)C(=O)c2ccc(OCC(=O)O)c(Cl)c2Cl)SS1      TGI         51.2 µM
6  CC(NC(=O)C(Cc1ccc(OC(=O)c2ccccc2)cc1)NC(=O)OC(C)(C)C)C(=O)NCC(=O)NC(Cc1ccccc1)NC(=O)OCc1ccccc1 (stereo unspecified)      TGI        > 100 µM

Request: Name the recorded TGI for O=C(N=Nc1ccc(Br)cc1)NNc1ccc(Br)cc1 .
Result: 78 µM

Request: Name the recorded TGI for CCOC(=O)c1nc2ccccc2nc1Nc1ccc(Cl)c(Cl)c1 .
Result: > 100 µM

Request: Name the recorded TGI for CC1CC(C)CN(S(=O)(=O)c2cc(Cl)c(Oc3ccc([N+](=O)[O-])cc3Cl)c(Cl)c2)C1 (stereo unspecified) .
Result: > 100 µM

Request: Name the recorded TGI for N#Cc1ccc(Oc2nc3ccccc3nc2C(=O)O)cc1 .
Result: > 100 µM

Request: Name the recorded TGI for CC1=CCCC(C)(O)C2CC(CCC3(C)OC3CC1)C(C)C(=O)O2 (stereo unspecified) .
Result: > 100 µM

Request: Name the recorded TGI for O=c1cc(-c2ccccc2)[nH]c2ccc(N3CCCCC3)cc12 .
Result: > 100 µM

Request: Name the recorded TGI for C/C(=N\NC(C)(C)C)c1sc(-c2nc(C)c(/C(C)=N/NC(C)(C)C)s2)nc1C .
Result: > 100 µM

Request: Name the recorded TGI for COc1ccc(NC(=S)N=Nc2c(O)[nH]c3ccccc23)cc1 .
Result: > 100 µM

Request: Name the recorded TGI for Cc1nnc(N)nc1/C=C\c1ccc(N(C)C)cc1 .
Result: > 100 µM

Request: Name the recorded TGI for O=c1[nH]c2ccc(C(F)(F)F)cc2nc1Cc1ccccc1 .
Result: 87.6 µM

Request: Name the recorded TGI for O=C(/C=C/c1c(O)ccc2ccccc12)c1ccccc1Cl .
Result: > 100 µM

###

Test system: NCI-H23 lung
method_summary: NCI tumour cell line growth inhibition, 48 h
A collection of compounds and their measured TGI
Response body: numeric value in µM, unit text excluded.

> print(dat)
                                   compound  measurement.unit  reported.value
1    OCC#Cc1ccccc1C#CCCCCCCC#Cc1ccccc1C#CCO                µM            30.9
2  O=C(Nc1ccc(Cl)cc1)Nc1ccc(Oc2nncc3ccccc23)cc1                µM            2.87
3  CC(C)(C)c1ccc2c(c1)C(O)(c1ccccc1)c1cc(C(C)(C)C)ccc1C2(O)C(F)(F)F (stereo unspecified)                µM            4.39
4  Nc1cc(N)c2nc(-c3ccccc3)c(Sc3ccc(Cl)c(Cl)c3)nc2c1                µM            34.5

Request: What is its TGI for NCI-H23 lung? Entry: CC(C)(C)c1cc(Cc2ccc([N+](C)(C)C)cc2)c(O)c(C(C)(C)C)c1
Result: 36.1

###

A collection of molecules and their measured TGI
System: OVCAR-3 ovarian
method_summary: NCI tumour cell line growth inhibition, 48 h

Worked examples, 2 molecules total:
> print(dat)
                                   molecule  reported.value
1  O=C(CCc1n[nH]c(=S)o1)Nc1cc(Cl)c(Cl)cc1Cl        > 100 µM
2     O=C(/C=C/c1c(O)ccc2ccccc12)c1ccccc1Cl        > 100 µM

With those in mind, consider the next molecule.
Request: Name the recorded TGI for CC(C)(C)c1ccc2c(c1)C(O)(c1ccccc1)c1cc(C(C)(C)C)ccc1C2(O)C(F)(F)F (stereo not given) .
Result: 4.29 µM

###

Test system: RXF-631 renal
method_summary: NCI tumour cell line growth inhibition, 48 h
measure: TGI (µM)
Response body: numeric value in µM, unit text excluded.

Request: What is its TGI for RXF-631 renal? Entry: C=C(CN(C)C)C(=O)c1ccc(OC2OC(COC(C)=O)C(OC(C)=O)C(OC(C)=O)C2OC(C)=O)cc1 (configuration not stated)
Result: 29.3

Request: What is its TGI for RXF-631 renal? Entry: CCCCCCCCCCCc1noc2c1C(=O)C(O)CC2 (configuration not stated)
Result: 36.7

Request: What is its TGI for RXF-631 renal? Entry: CC(=O)CC(=O)Nc1c(C)[c]([Hg][O]C(C)=O)c(C)[c]([Hg][O]C(C)=O)[c]1[Hg][O]C(C)=O
Result: 7.75

###

A collection of molecules and their measured GI50
Test system: SNB-19 CNS
method_summary: NCI tumour cell line growth inhibition, 48 h

> print(dat)
                                   molecule  reported.value
1     O=C1c2ccccc2C(=O)c2c1ccc(C(Br)Br)c2Cl         3.55 µM
2  C[C@H](O)CNc1cc(-c2[nH]c3cccnc3c2-c2ccc(F)cc2)ccn1         18.5 µM
3  CCCN1C(=O)/C(=C/c2cccc(O)c2)SC1=Nc1ccccc1           18 µM

Request: Name the recorded GI50 for CCC1=C(C)c2cc3[n-]c(cc4nc(c(C=O)c5[n-]c(cc1n2)c(C)c5CC)C(C)=C4CC)c(C)c3CC.[Ni+2] .
Result: > 100 µM

Request: Name the recorded GI50 for CN1C(=O)CC2(C)c3cc(O)ccc3N(C)C12 (stereo not given) .
Result: > 75 µM

Request: Name the recorded GI50 for CCc1c2c(nc3ccc(OC(=O)NCc4ccc(B5OC(C)(C)C(C)(C)O5)cc4)cc13)-c1cc3c(c(=O)n1C2)COC(=O)[C@]3(O)CC .
Result: < 0.01 µM

Request: Name the recorded GI50 for Cn1c2c(c3ccc(-c4ccn[nH]4)cc3c1=O)C(=O)c1ccccc1-2 .
Result: 2.71 µM

Request: Name the recorded GI50 for O=C1OC(c2cccc(C(F)(F)F)c2)c2ccc3ccccc3c21 (stereo not given) .
Result: > 100 µM

Request: Name the recorded GI50 for CN1CCN(c2ccc(N3Cc4ccccc4OC4=C3C(=O)c3c(O)ccc(O)c3C4=O)cn2)CC1 .
Result: 0.742 µM

Request: Name the recorded GI50 for CS(=O)(=O)Nc1ccc(Nc2c3ccccc3nc3cc(N)ccc23)cc1 .
Result: 0.241 µM

###

Tested on: BT-549 breast
method_summary: NCI tumour cell line growth inhibition, 48 h
measure: TGI (µM)
Response body: numeric value in µM, unit text excluded.

Worked examples, 3 molecules total:
> print(dat)
                                   molecule  reported.value
1  CCCN1C(=O)/C(=C/c2cccc(O)c2)SC1=Nc1ccc(OC)cc1            15.6
2  CCCCCc1cc2cc3c(c(O)c2c(=O)[nH]1)C1(CC3)C(O)=c2c(=O)c3c(=O)cc(OC)c(=O)c=3c(=O)c2=C1O (stereo unspecified)             3.6
3         S=C(NC/C(Br)=C/Br)Nc1cccc2ccccc12            84.6

With those in mind, consider the next molecule.
Request: What is its TGI for BT-549 breast? Entry: C/C=C(\C)C(=O)O[C@H]1C=CC(=O)O[C@H]1CC[C@H](O)[C@H](C)O
Result: 19.9

###

System: OVCAR-3 ovarian
method_summary: NCI tumour cell line growth inhibition, 48 h
measure: TGI

Worked examples, 3 compounds total:
> print(dat)
                                   compound  reported.value
1              S=c1[nH]n2c(Cc3ccccc3)nnc2s1        > 100 µM
2  CC(NNC(=S)N1CCCCCC1)c1cccnn1 (stereo unspecified)        > 100 µM
3  Cc1cn(C2CC(n3cncn3)C(C(C)O)O2)c(=O)[nH]c1=O (stereo unspecified)        > 100 µM

Request: Name the recorded TGI for O=C(O)CSc1ccc2[nH]c3ccccc3c(=O)c2c1 .
Result: > 100 µM

Request: Name the recorded TGI for C=CCCCC(C#N)(c1ccccc1)N1CCCC1 (stereo unspecified) .
Result: > 100 µM
